# Tested on: ACHN renal
# TEST_SUMMARY: NCI tumour cell line growth inhibition, 48 h
*1 amine or outer side, *2 acyl side, *3 side chain or, on linkers, in order; H or OH if unused. Where a SMILES comes first, the peptide text is derived from it. Bridges are numbered along the chain shown (N, C = ends). [ ]: non-standard residue; d: D form. The star is where a group is joined. Phe(3-Me) = Cc1cccc(C[C@H](N)C(=O)O)c1; NH(4-Cl-2-F-phenyl) = Fc1cc(Cl)ccc1N*; Pro(4R-Me) = C[C@H]1CN[C@H](C(=O)O)C1; Hyp = O=C(O)[C@@H]1C[C@@H](O)CN1; aThr = C[C@H](O)[C@H](N)C(=O)O; Pip = O=C(O)[C@@H]1CCCCN1; CO = O=C([*:1])[*:2]
MEASURED_ENDPOINT: GI50

{"COMPOUND": "Cn1c2ccccc2c2nnc(N/N=C/c3ccccn3)nc21", "GI50": "350 nM"}
{"COMPOUND": "N#CC(C#N)=CN1CCN(C(=O)c2ccccc2)C1=S", "GI50": "18800 nM"}
{"COMPOUND": "Clc1cc(Cl)cc(N2N=C(c3cccc(Nc4ccncc4)c3)CC2c2ccc(Br)cc2)c1 (stereo not drawn)", "GI50": "1660 nM"}
{"COMPOUND": "c1ccc2[nH]c(-c3ccc(OCCCCCOc4ccc(-c5nc6ccccc6[nH]5)cc4)cc3)nc2c1", "GI50": "3290 nM"}
{"COMPOUND": "CN1CCN(Cc2ccc(NC(=O)c3[nH]ncc3Nc3ncnc4c3CCC4)cc2)CC1", "GI50": "1320 nM"}

Request: Specify reported GI50 for the compound shown: `Cc1nc(Nc2ccc(F)c(Cl)c2)sc1C(=O)O`
Response: 1520 nM

Request: For the compound Cc1cccc(C[C@H](NC(=O)Nc2ccc(Cl)cc2F)C(=O)N[C@@H]2C(=O)N3C[C@H](O)C[C@H]3C(=O)N3CCCC[C@H]3C(=O)N[C@@H](C)C(=O)N3C[C@H](C)C[C@H]3C(=O)O[C@H]2C)c1 ({NH(4-Cl-2-F-phenyl)-CO}-[Phe(3-Me)][aThr][Hyp][Pip]A[Pro(4R-Me)]; ester 2-C) , report GI50.
Response: 2110 nM

Request: Quote GI50 reported for `O=C(N/N=C/c1ccc(O)cc1O)c1ccc(Nc2ccnc(C(F)(F)F)c2)cc1` please.
Response: 31800 nM
